System: Zika virus NS2B-NS3 protease
Assay: Primary screen GU AMC qHTS for Zika virus inhibitors (AID 1347154);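 note: 0% = no-inhibitor control and -100% = no-enzyme control; nearly all actives have a fitted effect of over 70% in size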
Details: Zika NS2B-NS3 unlinked protease, AMC fluorogenic substrate; series mostly up to 54.1 µM
Inconclusive results are not listed. Activity calls are given as the source filed them. Calls come from the whole dose curve; as a rule, active = well fitted inhibition curve with a large enough effect; inconclusive = small, poorly fitted or top-dose-only effect; inactive = flat fitted curve, though single readings scatter.
readout: activity change, negative = inhibition

These recorded examples may help you get a feel for the data.
C=NCc1cc2c(OC[C@@H](O)CNC(C)(C)C)cccc2[nH]1	inactive
COC(=O)/C=C/c1cccc(N(Cc2ccc(-c3ccc(N(C)C)cc3)cc2)C(=O)C2CCCCC2)c1	inactive
CC[C@@](N)(C(=O)O)c1ccc(C(=O)O)cc1	inactive
O=C1c2ccccc2C(Cc2ccnc(F)c2)(Cc2ccnc(F)c2)c2ccccc21	inactive
CC[N+]1(C)C2CCC1CC(OC(=O)[C@H]1CCC(C(=O)OC3CC4CCC(C3)[N+]4(C)CC)(c3ccccc3)c3ccccc31)C2 (stereo partly specified)	inactive
CC(C)Oc1cccc(-n2c(CCc3c[nH]c4ccc(Br)cc34)nc3ccccc3c2=O)c1	inactive
O=c1ccn([C@@H]2O[C@H](COP(=O)(O)OP(=O)(O)OP(=O)(O)O)[C@@H](O)[C@H]2O)c(=O)[nH]1	inactive
CCCCCCCCCCCCC(=O)N1CCCC[C@H]1CNC(=O)[C@@H](N)CCCCN	inactive

stdin: # lookup: activity change, negative = inhibition of CC[C@]1(O)C[C@@H]2CN(CCc3c([nH]c4ccccc34)[C@](C(=O)OC)(c3cc4c(cc3OC)N(C)[C@H]3[C@](O)(C(=O)OC)[C@@H](C(=O)OC)[C@@]5(CC)C=CCN6CC[C@@]43[C@@H]65)C2)C1
stdout: inactive

stdin: # lookup: activity change, negative = inhibition of O=c1[nH]cnc2ccccc12
stdout: inactive

stdin: # lookup: activity change, negative = inhibition of CCCCC/C=C\C/C=C\C/C=C\C/C=C\CCCCCC(=O)O
stdout: -5.55% [at 6.83 µM] (inactive)

stdin: # lookup: activity change, negative = inhibition of C[C@@H]1CCN=C(N)S1
stdout: inactive

----------
Experiment: qHTS for Inhibitors of Plasmodium falciparum (HB3) proliferation (AID 504318); note: nearly all actives have a fitted effect of over 60% in size
Conditions: P. falciparum HB3 in erythrocytes, SYBR Green DNA, 72 h; series mostly up to 7.21 µM
Inconclusive results are not listed. Calls of active or inactive are those of the source. Calls come from the whole dose curve; as a rule, active = well fitted inhibition curve with a large enough effect; inconclusive = small, poorly fitted or top-dose-only effect; inactive = flat fitted curve, though single readings scatter.
Please answer using one outcome listed in active, inactive

Recorded results for 8 compounds are shown here.
C[C@@H]1C=CCC(=O)OC[C@H](C)C(=O)OC[C@H]2O[C@H]1C=C[C@H]2O	inactive
CC#C[C@H](C)[C@@H](OCOC)[C@H](C[C@H](C)Cc1cc(Br)cc(OCc2ccccc2)c1OC)OC	active
O=C(NN=C1C[C@@H](O)[C@H](O)[C@H]2[C@@H]3C(=O)N(C4CCCCC4)C(=O)[C@@H]3CC[C@H]12)OCc1ccccc1	inactive
CCOC(=O)C(C)=NNC(C)=O	inactive
CC1(OC(=O)C2CCCC2)C(=O)C=C2C=C(c3ccsc3)N(C3CC3)C=C2C1=O (centres undefined)	inactive
COc1cccc(CO[C@H]2C=C[C@@H](c3ccccc3)O[C@H]2CBr)c1	inactive
COCCN1C(=O)NC(c2cccc(F)c2)C(C(C)=O)=C1C (centres undefined)	inactive
COC(=O)c1ccc(CN2C(=O)[C@]3(OCCC=C[C@@H]3C)c3ccccc32)cc1	inactive

Switching to the query record.
stdin: Give the logged outcome of this assay for the following compound: CCOC(=O)C1(C(=O)OCC)Cc2ccc(C(C)=O)cc2C1
stdout: inactive

----------
Experiment: Primary qHTS for inhibitors of nuclear receptor binding SET domain protein 2 (NSD2) in an isogenic RCH-ACV NSD2 p.E1099K mutant (9B) (AID 1645876); note: nearly all actives have a fitted effect of over 70% in size
Details: RCH-ACV NSD2 E1099K (9B) viability, CellTiter-Glo, 72 h; series mostly up to 44.9 µM
Records with an inconclusive call do not appear. The source made the active and inactive calls. Calls come from the whole dose curve; as a rule, active = well fitted inhibition curve with a large enough effect; inconclusive = small, poorly fitted or top-dose-only effect; inactive = flat fitted curve, though single readings scatter.
Please answer using one outcome listed in active, inactive

CC(=O)Nc1ccc(C(=O)NC(C)(C)C)cc1	inactive

stdin: Give the logged outcome of this assay for the following compound: CNc1ncc2cc(-c3cc(NC(=O)NCCC(C)(C)C)c(F)cc3C)c(C)nc2n1
stdout: active

stdin: Give the logged outcome of this assay for the following compound: C=C1/C(=C/C=C2\CCC[C@]3(C)[C@@H]([C@H](C)/C=C/C(=O)C4CC4)CC[C@@H]23)C[C@@H](O)C[C@@H]1O
stdout: active

stdin: Give the logged outcome of this assay for the following compound: COc1c(N2CC3CCCNC3C2)c(F)cc2c(=O)c(C(=O)O)cn(C3CC3)c12 (stereo not drawn)
stdout: inactive

stdin: Give the logged outcome of this assay for the following compound: CCCCc1nc(C)c(CC(=S)N(C)C)c(=O)n1Cc1ccc(-c2ccccc2-c2nn[nH]n2)cc1
stdout: inactive

stdin: Give the logged outcome of this assay for the following compound: CCN(CC)Cc1cccc(/C=C/c2nc3ccc(F)cc3c(=O)n2-c2ccccc2Cl)n1
stdout: active

stdin: Give the logged outcome of this assay for the following compound: C=CCN(/C=C1\C(=O)OC(COC)C2(C)C1=C(O)C(=O)C1=C2C(OC(C)=O)CC2(C)C(=O)CCC12)CC=C (stereo not drawn)
stdout: active

----------
Test: qHTS for Inhibitors of Plasmodium falciparum (DD2) proliferation (AID 504314); note: potency is the fitted concentration of half-maximal effect
Conditions: P. falciparum Dd2 in erythrocytes, SYBR Green growth, 72 h; series mostly up to 6.11 µM
Inconclusive results are not listed. The source made the active and inactive calls. The call rests on the fitted dose curve; in most records, active means well fitted inhibition curve with a large enough effect; inconclusive means small, poorly fitted or top-dose-only effect; inactive means flat fitted curve, though single readings scatter.
Some compounds, each annotated with its measured Potency.

These recorded examples may help you get a feel for the data.
CCCCCCCc1cc2c(cn1)C(=O)C(C)(OC(C)=O)C(O)=C2Cl (stereo not drawn)	1.89 µM (active)
COc1ccc(C=CC2=C[C@]3(C)C[C@]2(C)[C@H](c2ccc(OC)cc2)CC3=O)cc1	1.5 µM (active)

Note: attention shifts to another entry.
stdin: # lookup: Potency of O=C1OC2(CCCCC2)CC2=C1[C@H]1O[C@](CCCCN3C(=O)c4ccccc4C3=O)(Cc3ccccc31)O2
stdout: 1.5 µM (active)

----------
Assay: Primary qHTS for inhibitors of nuclear receptor binding SET domain protein 2 (NSD2) in an RCH-ACV wild type WT cells (2C) (AID 1645877); note: nearly all actives have a fitted effect of over 70% in size; note: potency is the fitted concentration of half-maximal effect
Settings: RCH-ACV (leukaemia line) NSD2 WT (2C) viability, CellTiter-Glo, 72 h; series mostly up to 44.9 µM
Results filed as inconclusive are left out. Active and inactive are the calls of the source. The call rests on the fitted dose curve; in most records, active means well fitted inhibition curve with a large enough effect; inconclusive means small, poorly fitted or top-dose-only effect; inactive means no such curve, though single readings can be large or run the other way.
readout: Potency

These recorded examples may help you get a feel for the data.
CC(C)C(=O)OC[C@@]1(N=[N+]=[N-])O[C@@H](n2ccc(N)nc2=O)[C@H](OC(=O)C(C)C)[C@@H]1OC(=O)C(C)C	inactive
O=C1CCCC2=C1C(c1ccccc1Br)N=C(Nc1nc3ccccc3o1)N2 (configuration not stated)	inactive
CC(=O)N1c2ccc(-c3ccc(C(=O)O)cc3)cc2C(Nc2ccc(Cl)cc2)CC1C (configuration not stated)	0.0205 µM (active)
C[C@@H](CN1CCC(n2c(=O)[nH]c3cc(Cl)ccc32)CC1)NC(=O)c1ccc2ccccc2c1	16.3 µM (active)
CN[C@@H]1C[C@H]2O[C@@](C)([C@@H]1OC)n1c3ccccc3c3c4c(c5c6ccccc6n2c5c31)C(=O)N[C@H]4O	0.0303 µM (active)

stdin: # lookup: Potency of C[C@@H]1N=C(N)NC(N(C)C)=N1
stdout: inactive

stdin: # lookup: Potency of Nc1nc(N)c2nc(-c3cccc(O)c3)cnc2n1
stdout: 1.46 µM (active)

stdin: # lookup: Potency of CCCCc1nc(Cl)c(CO)n1Cc1ccc(-c2ccccc2-c2nnn[nH]2)cc1
stdout: inactive

stdin: # lookup: Potency of CN(CCCNC(=O)c1ccc2nc3c(c(Cl)c2c1)CCCC3)Cc1ccccc1
stdout: 8.17 µM (active)

stdin: # lookup: Potency of CC(C)n1nc(-c2ccc(NC(=O)Nc3cccc(C(F)(F)F)c3)cc2)c2c(N)ncnc21
stdout: 0.259 µM (active)

stdin: # lookup: Potency of O=C(NC(NC(=S)Nc1ccc(F)c([N+](=O)[O-])c1)C(Cl)(Cl)Cl)C(c1ccccc1)c1ccccc1 (configuration not stated)
stdout: 20.6 µM (active)

stdin: # lookup: Potency of Clc1cc(Cl)c2c(c1)N=C1CCCCCN1C2
stdout: inactive

stdin: # lookup: Potency of Cc1ccc(C(=O)N2CCN(c3ccc([N+](=O)[O-])cc3)CC2)cc1Cl
stdout: 11.5 µM (active)

----------
Test system: TAB113
Experiment: qHTS profiling for inhibitors of Plasmodium falciparum proliferation (AID 504749);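 note: 0% = DMSO vehicle and full inhibition = artemisinin control; nearly all actives have a fitted effect of over 60% in size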
Conditions: P. falciparum in erythrocytes, SYBR Green DNA, 72 h; series mostly up to 28.7 µM
Results filed as inconclusive are left out. Calls of active or inactive are those of the source. Calls follow the shape of the dose curve; as a rule, active = well fitted inhibition curve with a large enough effect; inconclusive = small, poorly fitted or top-dose-only effect; inactive = flat fitted curve, though single readings scatter.
readout: outcome

CC(C)(O)c1ccccc1CC[C@H](SCC1(CC(=O)O)CC1)c1cccc(/C=C/c2ccc3ccc(Cl)cc3n2)c1	inactive
C[C@@H](C(=O)O)c1ccc(-c2ccccc2)c(F)c1	inactive
C/C=C1\C2C=C(C)CC1(N)c1ccc(=O)[nH]c1C2 (centres undefined)	inactive
COC(=O)[C@@H]1[C@@H]2C[C@H]3c4[nH]c5ccccc5c4CCN3C[C@@H]2CC[C@@H]1O	inactive
